Entry source: patent US12624044B2

tgt: SMARCA2 (Homo sapiens, UniProt P51531)
Sequence (P51531 whole entry): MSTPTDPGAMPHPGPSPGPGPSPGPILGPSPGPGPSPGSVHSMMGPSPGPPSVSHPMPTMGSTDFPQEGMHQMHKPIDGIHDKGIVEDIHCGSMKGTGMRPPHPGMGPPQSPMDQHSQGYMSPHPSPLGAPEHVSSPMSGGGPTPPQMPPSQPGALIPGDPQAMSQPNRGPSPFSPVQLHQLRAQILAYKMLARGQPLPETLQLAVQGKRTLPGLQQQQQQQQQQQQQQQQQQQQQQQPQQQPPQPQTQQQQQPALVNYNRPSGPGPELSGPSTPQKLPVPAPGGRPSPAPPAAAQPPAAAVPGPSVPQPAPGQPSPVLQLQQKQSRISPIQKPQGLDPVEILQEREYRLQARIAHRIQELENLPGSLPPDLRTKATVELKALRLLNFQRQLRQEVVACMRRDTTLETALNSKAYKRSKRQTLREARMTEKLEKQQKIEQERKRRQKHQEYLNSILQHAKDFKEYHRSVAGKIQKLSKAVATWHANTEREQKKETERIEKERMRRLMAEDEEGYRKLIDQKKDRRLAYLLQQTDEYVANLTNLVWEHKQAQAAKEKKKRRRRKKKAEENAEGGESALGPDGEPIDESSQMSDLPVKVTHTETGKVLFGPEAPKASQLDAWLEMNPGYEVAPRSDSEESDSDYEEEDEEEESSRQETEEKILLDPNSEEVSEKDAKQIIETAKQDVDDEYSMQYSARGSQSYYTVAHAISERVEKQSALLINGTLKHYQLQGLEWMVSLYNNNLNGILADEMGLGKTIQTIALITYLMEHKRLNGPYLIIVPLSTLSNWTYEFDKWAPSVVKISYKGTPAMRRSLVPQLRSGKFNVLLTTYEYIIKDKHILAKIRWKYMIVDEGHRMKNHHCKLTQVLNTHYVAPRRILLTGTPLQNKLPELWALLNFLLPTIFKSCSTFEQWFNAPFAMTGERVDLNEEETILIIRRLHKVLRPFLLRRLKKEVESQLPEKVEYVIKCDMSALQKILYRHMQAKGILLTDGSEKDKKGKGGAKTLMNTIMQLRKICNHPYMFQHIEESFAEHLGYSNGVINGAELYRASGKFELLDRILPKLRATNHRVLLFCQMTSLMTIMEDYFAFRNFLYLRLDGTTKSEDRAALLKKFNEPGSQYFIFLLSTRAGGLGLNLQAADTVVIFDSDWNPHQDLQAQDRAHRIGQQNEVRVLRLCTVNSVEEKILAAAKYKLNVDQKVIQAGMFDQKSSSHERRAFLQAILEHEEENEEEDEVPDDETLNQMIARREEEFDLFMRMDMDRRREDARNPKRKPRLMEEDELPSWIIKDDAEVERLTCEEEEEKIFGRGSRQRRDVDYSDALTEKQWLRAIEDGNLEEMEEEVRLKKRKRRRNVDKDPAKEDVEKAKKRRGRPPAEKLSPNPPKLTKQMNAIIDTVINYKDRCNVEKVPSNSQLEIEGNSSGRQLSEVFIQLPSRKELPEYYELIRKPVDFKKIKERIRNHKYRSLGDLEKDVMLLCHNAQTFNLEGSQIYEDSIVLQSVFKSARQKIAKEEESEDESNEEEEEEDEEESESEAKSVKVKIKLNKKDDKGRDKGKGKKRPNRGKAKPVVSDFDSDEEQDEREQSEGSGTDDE
measurement description: MSD SMARCA2 degradation in NCI-H1299 cell line (24 h)
Assay type: cell-based
Design: HC: NCI-H1299 cells treated with DMSO; host or cells: NCI-H1299
test settings: NCI-H1299 cells, read-out: SMARCA2 MSD H1299 degradation 24 h: External Abs-DC50
Where a name gives a salt, the structure may show the parent alone.
result type: DC50

Reference set, count: 8
| compound | observed |
| --- | --- |
| Cc1ncsc1-c1ccc(CNC(=O)[C@@H]2C[C@@H](O)CN2C(=O)[C@@H](NC(=O)COCCOCCOCCOCCOCCOCCNC(=O)c2ccc(C(C)n3cc(-c4cc(-c5ccccc5O)nnc4N)cn3)cc2)C(C)(C)C)cc1 (stereo partly drawn) | > 1000 nM |
| Cc1ncsc1-c1ccc(CNC(=O)[C@@H]2C[C@@H](O)CN2C(=O)[C@@H](NC(=O)[C@H]2CC3(C2)C[C@H](N2CCC(n4cc(-c5cc(-c6ccccc6O)nnc5N)cn4)CC2)C3)C(C)(C)C)cc1 (stereo partly drawn) [I-390] | 501 to 1000 nM |
| Cn1c(=O)n(C2CCC(=O)NC2=O)c2ccc(CCCOCCOCCOc3cccc(N4C[C@H]5C[C@@H]4CN5/C=C/C(=O)c4ccccc4O)n3)cc21 (stereo partly drawn) | > 1000 nM |
| Cc1ncsc1-c1ccc(CNC(=O)[C@@H]2C[C@@H](O)CN2C(=O)[C@@H](NC(=O)COCCOCCOCCNC(=O)c2ccc(C(C)n3cc(-c4cc(-c5ccccc5O)nnc4N)cn3)cc2)C(C)(C)C)cc1 (stereo partly drawn) | > 1000 nM |
| Cn1c(=O)n(C2CCC(=O)NC2=O)c2cccc(CCCCCCCN3CCCC(n4cc(-c5cc(-c6ccccc6O)nnc5N)cn4)C3)c21 (stereo not drawn) | > 1000 nM |
| O=C1CCC(n2c(=O)n(CCCCCCc3cn(Cc4cccc(N5C[C@H]6C[C@@H]5CN6/C=C/C(=O)c5ccccc5O)n4)nn3)c3ccccc32)C(=O)N1 (stereo partly drawn) | > 1000 nM |
| Cn1c(=O)n(C2CCC(=O)NC2=O)c2ccc(CCCOCCOCCOCCNC(=O)CCCCCCCCOc3ccnc(N4C[C@H]5C[C@@H]4CN5/C=C/C(=O)c4ccccc4O)c3)cc21 (stereo partly drawn) | > 1000 nM |
| Cn1c(=O)n(C2CCC(=O)NC2=O)c2cccc(CCCOCCOCCOCCN3CCN(Cc4ccc(-c5cc(-c6ccccc6O)nnc5N)cc4)CC3)c21 (stereo not drawn) | > 1000 nM |

Consider the compound Cn1c(=O)n(C2CCC(=O)NC2=O)c2ccc(CCCCOCCCCNCc3ccc(N4CCN(c5cc(-c6ccccc6O)nnc5N)CC4)cc3)cc21 (stereo not drawn) . State its measured DC50.
< 100 nM

Consider the compound Cn1c(=O)n(C2CCC(=O)NC2=O)c2cccc(C#CCN3CCO[C@H](CNCc4ccc(N5CCN(c6cc(-c7ccccc7O)nnc6N)CC5)cc4)C3)c21 (stereo partly drawn) . State its measured DC50.
> 1000 nM

Consider the compound Cn1c(=O)n(C2CCC(=O)NC2=O)c2ccc(CCCCCCCCCCOc3cccc(CN4CCN(c5cc(-c6ccccc6O)nnc5N)CC4)c3)cc21 (stereo not drawn) . State its measured DC50.
> 1000 nM

Consider the compound O=C(CCCCCCCCOc1ccnc(N2C[C@H]3C[C@@H]2CN3/C=C/C(=O)c2ccccc2O)c1)NCCOCCOCCNc1cccc2c1C(=O)N(C1CCC(=O)NC1=O)C2=O (stereo partly drawn) . State its measured DC50.
> 1000 nM

Consider the compound Cn1c(=O)n(C2CCC(=O)NC2=O)c2cccc(CNCCc3cn(Cc4cccc(N5C[C@H]6C[C@@H]5CN6/C=C/C(=O)c5ccccc5O)n4)nn3)c21 (stereo partly drawn) . State its measured DC50.
> 1000 nM

Consider the compound Cn1c(=O)n(C2CCC(=O)NC2=O)c2cccc(CCCCN3CCC[C@@H](Cn4cc(-c5cc(-c6ccccc6O)nnc5N)cn4)C3)c21 (stereo partly drawn) . State its measured DC50.
< 100 nM

Consider the compound O=C(CCCCCCCCOc1ccc(N2C[C@H]3C[C@@H]2CN3/C=C/C(=O)c2ccccc2O)nc1)NCCOCCOCCOCCOCCOCCNc1cccc2c1C(=O)N(C1CCC(=O)NC1=O)C2=O (stereo partly drawn) . State its measured DC50.
> 1000 nM

Consider the compound Cn1c(=O)n(C2CCC(=O)NC2=O)c2ccc(CN3CCC(c4cnc(N5C6CCC5CN(c5cc(-c7ccccc7O)nnc5N)C6)nc4)CC3)cc21 (stereo not drawn) . State its measured DC50.
< 100 nM

Consider the compound CN[C@@H](C)C(=O)N[C@H](C(=O)N1Cc2cc(OCCOCCOCCOCCOCCOCCNC(=O)CCCCCCCCOc3ccnc(N4C[C@H]5C[C@@H]4CN5/C=C/C(=O)c4ccccc4O)c3)ccc2C[C@H]1C(=O)N[C@@H]1CCCc2ccccc21)C(C)(C)C . State its measured DC50.
> 1000 nM

Consider the compound Cn1c(=O)n(C2CCC(=O)NC2=O)c2cccc(CCCOC3CCN(Cc4ccc(N5CCN(c6cc(-c7ccccc7O)nnc6N)CC5)cc4)CC3)c21 (stereo not drawn) . State its measured DC50.
100 to 500 nM

Consider the compound Cc1ncsc1-c1ccc(CNC(=O)[C@@H]2C[C@@H](O)CN2C(=O)[C@@H](NC(=O)CN2CCC(c3cnc(N4CCN(c5cc(-c6ccccc6O)nnc5N)CC4)nc3)CC2)C(C)(C)C)cc1 . State its measured DC50.
100 to 500 nM

Consider the compound COc1cc(C(=O)NCCCNCc2ccc(N3CCN(c4cc(-c5ccccc5O)nnc4N)CC3)cc2)ccc1NC(=O)[C@@H]1N[C@@H](CC(C)(C)C)[C@](C#N)(c2ccc(Cl)cc2F)[C@H]1c1cccc(Cl)c1F [I-238, hydrochloride] . State its measured DC50.
> 1000 nM
